- Tested on: SK-MEL-28
- Run description: SRB colorimetric assay of cell growth and viability, SK-MEL-28
- Assay type: cell-based, human
- Assay setup: 48 hours exposure
Where a SMILES comes first, the peptide text is derived from it. Bridges are numbered along the chain shown (N, C = ends). [ ]: non-standard residue; d: D form. The star is where a group is joined. d(aIle) = CC[C@H](C)[C@@H](N)C(=O)O; d(aThr) = C[C@@H](O)[C@@H](N)C(=O)O; Hexanoyl(5-Me) = CC(C)CCCC(=O)*; Orn = NCCC[C@H](N)C(=O)O; Dhb = C/C=C(\N)C(=O)O; Aib = CC(C)(N)C(=O)O
List of GI50 values.
Write the answer as a number in µM, unit excluded.

INPUT: Which GI50 reading was recorded for the molecule C/C=C1\NC(=O)[C@H](Cc2ccccc2)NC(=O)[C@@H](C(C)C)NC(=O)[C@@H]([C@@H](C)CC)NC(=O)[C@H](NC(=O)[C@H](NC(=O)[C@H](CCCN)NC(=O)[C@H]2CCCN2C(=O)[C@H](NC(=O)[C@@H](NC(=O)[C@@H](NC(=O)[C@H](NC(=O)c2ccccc2)C(C)C)[C@@H](C)O)C(C)C)C(C)C)[C@@H](C)CC)[C@@H](C)OC(=O)[C@H](C(C)C)NC1=O [Compound 20, [Bza^14]-KF] ?
OUTPUT: 1.2

INPUT: Next molecule: CC[C@H](C)[C@@H](NC(=O)[C@H](CCCN)NC(=O)[C@H]1CCCN1C(=O)[C@H](NC(=O)[C@@H](NC(=O)[C@@H](NC(=O)[C@H](NC(=O)CCCC(C)C)C(C)C)[C@@H](C)O)C(C)C)C(C)C)C(=O)N[C@H]1C(=O)N[C@H]([C@@H](C)CC)C(=O)N[C@H](C(C)C)C(=O)N[C@@H](Cc2ccccc2)C(=O)NC(C)(C)C(=O)N[C@@H](C(C)C)C(=O)O[C@@H]1C [Compound 66, [Aib^2]-KF] ({Hexanoyl(5-Me)}-[dV]TV[dV][dP][Orn][d(aIle)][d(aThr)][d(aIle)][dV]F[Aib]V; ester 8-C)
OUTPUT: 2.24

INPUT: Note, next up: C/C=C1\NC(=O)[C@H](Cc2ccccc2)NC(=O)[C@@H](C(C)C)NC(=O)[C@@H]([C@@H](C)CC)NC(=O)[C@H](NC(=O)[C@H](NC(=O)[C@H](CCCN)NC(=O)[C@H]2CCCN2C(=O)[C@H](NC(=O)[C@@H](NC(=O)[C@@H](NC(=O)[C@@H](CC2CCCCC2)NC(=O)CCCC(C)C)[C@@H](C)O)C(C)C)C(C)C)[C@@H](C)CC)[C@@H](C)OC(=O)[C@H](C(C)C)NC1=O [Compound 8, [D-Cha^13]-KF]
OUTPUT: 1.45

INPUT: Request: C/C=C1\NC(=O)[C@H](Cc2ccccc2)NC(=O)[C@@H](C(C)C)NC(=O)[C@@H]([C@@H](C)CC)NC(=O)[C@H](NC(=O)[C@H](NC(=O)[C@H](CCCN)NC(=O)[C@H]2CCCN2C(=O)[C@H](NC(=O)[C@@H](NC(=O)[C@@H](NC(=O)[C@H](NC(=O)Cc2ccc(C(F)(F)F)cc2)C(C)C)[C@@H](C)O)C(C)C)C(C)C)[C@@H](C)CC)[C@@H](C)OC(=O)[C@H](C(C)C)NC1=O [Compound 25, [p-CF3PhAc^14]-KF]
OUTPUT: 1.4

INPUT: Entry to check: C/C=C1\NC(=O)[C@H](Cc2ccccc2)NC(=O)[C@@H](C(C)C)NC(=O)[C@@H]([C@@H](C)CC)NC(=O)[C@H](NC(=O)[C@H](NC(=O)[C@H](CCCN)NC(=O)[C@H]2CCCN2C(=O)[C@H](NC(=O)[C@@H](NC(=O)[C@@H](NC(=O)[C@H](NC(=O)CCCC(C)C)[C@H](C)O)[C@@H](C)O)C(C)C)C(C)C)[C@@H](C)CC)[C@@H](C)OC(=O)[C@H](C(C)C)NC1=O [Compound 41, [D-Thr^13]-KF]
OUTPUT: 1.23

INPUT: Another molecule to check: C/C=C1\NC(=O)[C@H](Cc2ccccc2)NC(=O)[C@@H](C(C)C)NC(=O)[C@@H]([C@@H](C)CC)NC(=O)[C@H](NC(=O)[C@H](NC(=O)[C@H](CCCN)NC(=O)[C@H]2CCCN2C(=O)[C@H](NC(=O)[C@@H](NC(=O)[C@@H](NC(=O)[C@@H](C)NC(=O)CCCC(C)C)[C@@H](C)O)C(C)C)C(C)C)[C@@H](C)CC)[C@@H](C)OC(=O)[C@H](C(C)C)NC1=O [Compound 34, [D-Ala^13]-KF]
OUTPUT: 1.81

INPUT: One more molecule: C/C=C1\NC(=O)[C@H](Cc2ccccc2)NC(=O)[C@@H](C(C)C)NC(=O)[C@@H]([C@@H](C)CC)NC(=O)[C@H](NC(=O)[C@H](NC(=O)[C@H](CCCN)NC(=O)[C@H]2CCCN2C(=O)[C@H](NC(=O)[C@@H](NC(=O)CNC(=O)CCCC(C)C)C(C)C)C(C)C)[C@@H](C)CC)[C@@H](C)OC(=O)[C@H](C(C)C)NC1=O [Compound 53, [Gly^12, noD-Val^13]-KF] ({Hexanoyl(5-Me)}-GV[dV][dP][Orn][d(aIle)][d(aThr)][d(aIle)][dV]F[Dhb]V; ester 7-C)
OUTPUT: 7.49
